Target: T1, human parathyroid hormone receptor (PTHR) (human, UniProt Q03431 27-593)
T1 sequence: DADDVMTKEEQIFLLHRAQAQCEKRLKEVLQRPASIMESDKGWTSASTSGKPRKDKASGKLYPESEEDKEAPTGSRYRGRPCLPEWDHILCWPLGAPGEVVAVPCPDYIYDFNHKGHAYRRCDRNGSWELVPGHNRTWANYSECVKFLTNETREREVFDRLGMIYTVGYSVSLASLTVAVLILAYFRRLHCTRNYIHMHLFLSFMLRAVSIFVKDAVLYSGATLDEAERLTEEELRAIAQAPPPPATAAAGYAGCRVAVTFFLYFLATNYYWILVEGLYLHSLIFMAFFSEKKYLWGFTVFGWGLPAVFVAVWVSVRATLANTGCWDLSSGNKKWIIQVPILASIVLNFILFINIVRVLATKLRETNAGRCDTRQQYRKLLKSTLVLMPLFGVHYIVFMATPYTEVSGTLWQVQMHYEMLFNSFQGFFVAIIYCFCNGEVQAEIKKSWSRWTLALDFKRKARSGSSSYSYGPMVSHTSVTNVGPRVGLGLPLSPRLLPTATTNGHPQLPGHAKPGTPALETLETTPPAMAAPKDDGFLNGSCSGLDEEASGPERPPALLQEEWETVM
Assay: cell-based or functional assay
Ends that are not written are not given here.
Below is a list of entries, each paired with its recorded cAMP in HKRK-B7 cells, Max value.
API: value field is a number in pm/well; no unit string.

## Task # get_value(readout='cAMP in HKRK-B7 cells, Max', item= AVAEIQLMHQRAKWLNSMRRVEWLRKKLQDVHNF-OH [Mc-hPTH(1-34)OH] )
## Result 65.5

## Task And the next one, AVAEIQLMHQRGKHLNSMERVEALRKKLQDVHNF-OH (also called [A^1,A^3,A^23,Q^10,R^11]-PTH(1-34)OH; [A1,3,23,Q10,R11]-hPTH(1-34)) [[A1,3,23,Q10,R11]-PTH(1-34)OH] ?
## Result 63.8

## Task # repeat for AVSEHQLLHDKGKSIQDARRRAFLLKLI-NH2 (not fully specified, also called [Ala^18,22,Leu^25,Lys^26]-PTHrP(1-28); AALK-PTHrP(1-28)) [A18,22,L25,K26-PTHrP(1-28)NH]
## Result 56.4

## Task What about this binder? AVAEIQLMHNLGKHLNSMERVEALRKKLQDVHNF-OH (also called [A^1,A^3,A^23]-PTH(1-34)OH; [A1,3,23]-hPTH(1-34)) [[A1,3,23]-PTH(1-34)OH]
## Result 66.6
